test system: colon cancer HT-29; assay: anticancer activity in vitro (SRB, MTT), colon cancer HT-29; format: cell-based; details: Homo sapiens, action time about 72 h
Parameter measured: IC50

{"columns": ["Compound", "Target", "Value reported"],
 "data": [
  ["C=CCNc1nc(Nc2ccc3ncccc3c2)nc2[nH]cnc12", "colon cancer HT-29", "8.61 µM"],
  ["O=[N+]([O-])c1ccc(Nc2nc(NC3CC3)c3nc[nH]c3n2)cc1", "colon cancer HT-29", "> 100 µM"],
  ["c1cc(Nc2nc(NC3CC3)c3nc[nH]c3n2)ccn1", "colon cancer HT-29", "16.8 µM"],
  ["C=CCN(CC=C)c1nc(Nc2ccc3ncccc3c2)nc2[nH]cnc12", "colon cancer HT-29", "1.94 µM"],
  ["c1cnc2ccc(Nc3nc(N4CCCCC4)c4nc[nH]c4n3)cc2c1", "colon cancer HT-29", "2.22 µM"],
  ["CCN1CCN(c2nc(Nc3ccc4ncccc4c3)nc3[nH]cnc23)CC1", "colon cancer HT-29", "4.27 µM"],
  ["CNc1nc(Nc2ccc3ncccc3c2)nc2[nH]cnc12", "colon cancer HT-29", "4.01 µM"],
  ["COc1cc(Nc2nc(NC3CC3)c3nc[nH]c3n2)cc2cccnc12", "colon cancer HT-29", "5.72 µM"],
  ["CC(CO)Nc1nc(Nc2ccc3ncccc3c2)nc2[nH]cnc12 (stereo not drawn)", "colon cancer HT-29", "24.2 µM"]
]}

====

tested on: mouse S180 sarcoma; test: inhibitory effects on the growth of mouse S180 sarcoma in vivo; conditions: S180 mice, 200 mg/kg p.o.
Parameter measured: End body weight (g)

{"columns": ["Smiles structure", "Readout units", "Value reported"],
 "data": [
  ["c1cnc2ccc(Nc3nc(N4CCCC4)c4nc[nH]c4n3)cc2c1", "g", 19.12],
  ["C=CCNc1nc(Nc2ccc3ncccc3c2)nc2[nH]cnc12", "g", 16.04],
  ["CN1CCN(c2nc(Nc3ccc4ncccc4c3)nc3[nH]cnc23)CC1", "g", 21.35],
  ["CN(C)c1nc(Nc2ccc3ncccc3c2)nc2[nH]cnc12", "g", 16.80]
]}

====

test system: colon cancer HT-29; experiment: anticancer activity in vitro (SRB, MTT), colon cancer HT-29; assay type: cell-based; conditions: Homo sapiens, action time about 72 h

{"columns": ["Compound", "Comparative sign", "IC50 (nM)"],
 "data": [
  ["c1ccc(Nc2nc(NC3CC3)c3nc[nH]c3n2)nc1 [Compound XXVIII]", "=", 81400],
  ["FC(F)(F)c1cc(Nc2nc(NC3CC3)c3nc[nH]c3n2)cc2cccnc12 [Compound XXIV]", ">", 100000],
  ["c1cnc2ccc(Nc3nc(N4CCNCC4)c4nc[nH]c4n3)cc2c1 [Compound XXI]", "=", 2740],
  ["COc1cccc2c1C(=O)c1c(O)c3c(c(O)c1C2=O)C[C@@](O)(C(=O)CO)C[C@@H]3O[C@H]1C[C@H](N)[C@H](O)[C@H](C)O1 [ADR, adriamycin, reference compound]", "=", 380],
  ["c1cnc2ccc(Nc3nc(N4CCCC4)c4nc[nH]c4n3)cc2c1 [Compound IV]", "=", 380],
  ["Cc1cc(Nc2nc(NC3CC3)c3nc[nH]c3n2)c2ccccc2n1 [Compound XXV]", "=", 2250]
]}

====

Recorded End body weight by entry
tested on: mouse Colon26 cancer; experiment: inhibitory effects on the growth of mouse Colon26 cancer in vivo; details: Colon26 mice, 100 mg/kg p.o.
Parameter measured: End body weight

{"columns": ["Molecule", "Value reported"],
 "data": [
  ["C=CCNc1nc(Nc2ccc3ncccc3c2)nc2[nH]cnc12 [Compound I]", "18.15 g"],
  ["c1cnc2ccc(Nc3nc(N4CCCC4)c4nc[nH]c4n3)cc2c1 [Compound IV]", "19.32 g"],
  ["CN1CCN(c2nc(Nc3ccc4ncccc4c3)nc3[nH]cnc23)CC1 [Compound XII]", "19.16 g"],
  ["CN(C)c1nc(Nc2ccc3ncccc3c2)nc2[nH]cnc12 [Compound XX]", "18.74 g"]
]}
